# System: 633275-114-R-J1-PDC complex spheroids, viability;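 also: spheroids exposed to the agents for seven days; percent of DMSO vehicle control viability which is 100%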
# Method: Anticancer human tumor 633275-114-R-J1-PDC patient-derived endometrial adenocarcinoma cell line growth inhibition [GQUAD]; active = viability on the fitted dose curve at most 10% of control; inactive = the rest
# Measurement Setup: second compound 3.16 µM; first compound 10 µM
Your reply should match one of these outcome classes. label 1 (active), label 0 (inactive)

Record excerpt, results attached:
[
  {
    "Molecule": "CC(C)(O)C1CCC(Nc2ccc3ncc(-c4cccc(C(F)(F)F)c4)n3n2)CC1 (configuration not stated) + Cc1cnc(CNC(=O)c2c(=O)c3ccc(N4CCCN(C)CC4)nc3n3c2sc2ccccc23)cn1",
    "Tested System": "633275-114-R-J1-PDC complex spheroids, viability",
    "Cat": "label 1"
  },
  {
    "Molecule": "COc1ccc([C@@H](O)c2cc(-c3ncnc4cc(N5CCOCC5)ccc34)c(F)cc2Cl)nn1 + Cc1[nH]c2ccc(F)cc2c1-c1nc2c3cccnc3c3ncccc3c2[nH]1",
    "Tested System": "633275-114-R-J1-PDC complex spheroids, viability",
    "Cat": "label 0"
  },
  {
    "Molecule": "COc1ccc([C@@H](O)c2cc(-c3ncnc4cc(N5CCOCC5)ccc34)c(F)cc2Cl)nn1 + CN(C)c1ccc(Nc2c3ccc(NC(=O)CCN4CCCC4)cc3nc3cc(NC(=O)CCN4CCCC4)ccc23)cc1",
    "Tested System": "633275-114-R-J1-PDC complex spheroids, viability",
    "Cat": "label 0"
  }
]

Input: Hi, sorry to bother you, what did the test record for CC1COCCN1c1cc(C2(O)CC3CCC(C2)O3)c2cnn(-c3ccn[nH]3)c2n1 (configuration not stated) + Cc1cnc(CNC(=O)c2c(=O)c3ccc(N4CCCN(C)CC4)nc3n3c2sc2ccccc23)cn1 ?
Output: label 1

Input: Hi, sorry to bother you, what did the test record for Nc1ccn(C2OC(CO)C(O)C2(F)F)c(=O)n1 (configuration not stated) + Cc1[nH]c2ccc(F)cc2c1-c1nc2c3cccnc3c3ncccc3c2[nH]1 ?
Output: label 0

Input: Hi, sorry to bother you, what did the test record for O=c1[nH]cc(F)c(=O)[nH]1 + CN(C)c1ccc(Nc2c3ccc(NC(=O)CCN4CCCC4)cc3nc3cc(NC(=O)CCN4CCCC4)ccc23)cc1 ?
Output: label 0

Cited source: PubChem BioAssay AID2060505
